In this section we review reported OD 450 nm values for a set of binders.
target: HCV E1E2 antigen, isolate OH8 (hepatitis C virus, isolate OH8); assay: ELISA, Fab on E1E2 antigen
Please respond with the number in OD 450 nm and leave the unit unwritten.

Sample records with OD 450 nm:
Binder	OD 450 nm (OD 450 nm)
Fab O1 (Fab, V domains shown) VH: VQLLEQSGAEVKKAGESVRLSCKASGYRFGDYWIAWVRQLPGRAPEWMGIIYPDDSDTKYSPSFQGQVTISADKSIRTTFLDWGSLKASDTAIYYCARGCLGAKCYYPHYYYGLDVWGQGTTVIVSS VL: ELTQSPSSLSASVGDRVTITCRATQGIDNYLNWYQQKPGKPPRLLIYGASSLQSGVPSRFSGGGSGTHFTLTITNLQPEDFATYYCQQSYSTPPETFGQGTKVEIKR	0.44
Fab Q2 (Fab, V domains shown) VH: VQLLEQSGAEVKKPGASVKVSCKASGYTFTNNGLNWVRQAPGQGLEWMGWISPYNGDTDFAHKFQGRISMTTDTSTNTAYMELRSLRSDDTAVYYCARDRNSAGGTWLFRDPPPGSTFFDSWGQGSLVTVSS VL: ELTQSPASLSLSPGGSATLACRASRGVNSNLAWYHQKPGQAPRLLIYSASTRATGIPGRFSGSGFGTEFTLTINNLQSDDFGVYYCQQYDDTPQITFGQGTRLDIKR	0.43

Consider now this further binder.
The value of OD 450 nm measured for the binder Fab N4 (Fab, V domains shown) VH: VQLLEQSGPEVKKPGDSLRISCKMSGDSLVTTWIGWVRQKPGQGLEWMGIINPGDSSTNIYPGDSATRYGPSFQGQVTISIDKSTSTAYLQWNNVKASDTGIYYCARHVPVPISGTFLWREREMHDFGYFDDWGQGTLVIVSS VL: ELTLTQSPGTLSLSPGERATLSCRASQSVSNNYLAWYQQKPGQAPRLLIYGASSRATGIPDRFSGSGSGTGFTLIISRLEPEDFAVYYCQQYGSSSITFGQGTRLEIKR turned out to be 1.75
